Tested on: Enterococcus faecalis (GC 6189), vancomycin resistant strain
Test: Acute lethal infection in mice (ED50)
Format: in vivo
Settings: female CD-1 mice, intraperitoneal challenge, intravenous dose 30 min. after infection, 7 day survival ratios
Listing: median effective dose (ED50), Enterococcus faecalis (GC 6189) of selected molecules

- molecule: "Cc1ccc(CC2OCC3OC(OC4C(CO)OC(Oc5ccc(CC6NC(=O)C(C(C)c7ccccc7)NC(=O)CNC(=O)C(CO)NC(=O)C(C(O)C7CNC(=N)N7C7OC(CO)C(O)C(O)C7O)NC(=O)C(C(O)C7CNC(=N)N7)NC6=O)cc5)C(O)C4O)C(O)C(O)C3O2)cc1 (centres unmarked) [Example 119]"
  experimental.target: "Enterococcus faecalis (GC 6189), vancomycin resistant strain"
  test.value: "0.41 mg/kg"

Then there is this molecule:
Memo: CC(c1ccccc1)C1NC(=O)CNC(=O)C(CO)NC(=O)C(C(O)C2CNC(=N)N2C2OC(CO)C(O)C(O)C2O)NC(=O)C(C(O)C2CNC(=N)N2)NC(=O)C(Cc2ccc(OC3OC(CO)C(OC4OC5COC(C6CC=CCC6)OC5C(O)C4O)C(O)C3O)cc2)NC1=O (centres unmarked) [Example 115] , reported median effective dose (ED50), Enterococcus faecalis (GC 6189): 0.36 mg/kg
